assay: Serum levels of phorate, its metabolites and PAM in the poisoned patient (LC-MS); assay type: in vivo, human; conditions: human, in vivo; patient, day 1, before HP, about 4 h after ingestion of 60% phorate emulsion
measured_metric: concentration at 4 h (ng/mL)

[[record]]
compound = "CCOP(=S)(OCC)SC[S+]([O-])CC (stereo not drawn) [phorate sulfoxide]"
readout_unit = "ng/mL"
measured_result = 1440

[[record]]
compound = "CCOP(=O)(OCC)SCS(=O)(=O)CC"
readout_unit = "ng/mL"
measured_result = 3240

[[record]]
compound = "CCOP(=S)(OCC)SCS(=O)(=O)CC [phorate sulfone]"
readout_unit = "ng/mL"
measured_result = 1920


###

assay: Serum levels of phorate, its metabolites and PAM in the poisoned patient (LC-MS); type: in vivo, human; conditions: human, in vivo; patient, day 5
measured_metric: concentration at 5 day (ng/mL)

[[record]]
compound = "CCOP(=S)(OCC)SC[S+]([O-])CC (stereo not drawn) [phorate sulfoxide]"
measured_result = 10.9

[[record]]
compound = "CCOP(=O)(OCC)SCS(=O)(=O)CC"
measured_result = 114

[[record]]
compound = "CCOP(=S)(OCC)SCS(=O)(=O)CC [phorate sulfone]"
measured_result = 68.9


###

experiment: Serum levels of phorate, its metabolites and PAM in the poisoned patient (LC-MS); format: in vivo, human; conditions: human, in vivo; patient, day 1, after HP
Each entry below carries its reported concentration at 1 day.
measured_metric: concentration at 1 day (ng/mL)

[[record]]
molecule = "CCOP(=O)(OCC)SCS(=O)(=O)CC"
measured_result = 2110

[[record]]
molecule = "CCOP(=S)(OCC)SC[S+]([O-])CC (stereo not drawn) [phorate sulfoxide]"
measured_result = 1020

[[record]]
molecule = "CCOP(=S)(OCC)SCS(=O)(=O)CC [phorate sulfone]"
measured_result = 1310

